Please provide measured scaled log2 fold change for the entries that follow.
B1: library; numbered along this chain (parent)
chain: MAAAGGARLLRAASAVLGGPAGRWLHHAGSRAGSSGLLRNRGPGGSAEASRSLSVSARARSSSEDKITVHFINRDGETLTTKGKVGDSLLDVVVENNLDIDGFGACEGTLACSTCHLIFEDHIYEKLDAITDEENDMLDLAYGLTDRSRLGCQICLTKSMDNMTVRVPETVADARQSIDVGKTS

variants of: B1; assay: scaled log2 fold change in cell abundance, elesclomol vs control (0 = silent mean, 1 = nonsense mean) (scaled log2 ratio); higher = higher viability under elesclomol (loss of FDX1 cuproptosis function); settings: with ABC1 FDX1 KO; elesclomol 5 nM; glucose 10 mM; 14 days;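 further: variant abundance is its share of total variant reads in each endpoint sample, from next-generation sequencing of the integrated ORF PCR-amplified out of genomic DNA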

Study these solved cases before continuing.
# mutant_id, scaled log2 fold change
data = [
    ("A141C", 0.249),
    ("T80C", 0.0285),
    ("T131Y", 0.17),
    ("N162K", -0.0702),
    ("E133S", -1.5),
    ("H116S", -0.0363),
    ("P20Y", 0.0978),
    ("D173M", -0.417),
    ("G6D", -0.00796),
    ("K126E", -0.285),
]

For every listed record, write down its scaled log2 fold change.
1. V85L
2. D179F
3. G86M
4. V16K
5. L138P

Ans:
1. -0.101
2. -0.352
3. -0.125
4. 0.121
5. 1.15

Where these numbers come from: the supplement of paper PMC12855868
